The values you see were collected from the supplement of paper PMC9732359.

// protein stability index lookup, one value per entry
Assay Protocol: protein stability index of a GFP-peptide fusion (yeast GPS) (PSI 1-4); higher = more stable; sorted into four equal gates, so the index is relative within each strain
Reported Conditions: ubr1∆
Result Type: protein stability index

# Sequence Content, Result Type, Assay Value
records = [
    ("SSATIVLCLTRSSYMLE [YCG1]", "protein stability index", 2.23),
    ("SVAVHFQYVIDESSGTS [SMC4]", "protein stability index", 1.77),
    ("SYIGTIIVKDKSNDSEG [POP1]", "protein stability index", 1.35),
    ("LESGKETALEFLEKEKQ [SMC4]", "protein stability index", 3.48),
    ("QDKEKIDNLKDTLKENA [ITC1]", "protein stability index", 3.09),
    ("SENEDTKDLLSKSPSEW [CSE2]", "protein stability index", 3.19),
    ("HVQFRLGNVDAFQLADG [PRP8]", "protein stability index", 1.61),
    ("VMLLGTPDANLISKPAK [UBP6]", "protein stability index", 3.32),
]

* * *

Assay Protocol: protein stability index of a GFP-peptide fusion (yeast GPS) (PSI 1-4); higher = more stable; sorted into four equal gates, so the index is relative within each strain
Reported Conditions: pdr5∆

# Sequence Content, protein stability index
records = [
    ("AKFRLILIESRIHRLAR [RPS13]", 1.97),
    ("VHLSNGYKMIPGAKPLQ [FAS1]", 2.02),
    ("LSESDKKSKLISLYLLN [RPN12]", 3),
    ("HIEGVVILKKNPDYREE [RPN1]", 3.07),
    ("IVEINNVSNTFNKTTNI [YJL041W/NSP1]", 2.9),
    ("LGFTPGELRSYLKGATG [FAS1]", 3.66),
    ("IESDSILNLLNILTTHL [ECM29]", 2.02),
    ("PFTASQSNINTNAPLRT [YIL149C/MLP2]", 2.49),
    ("ISKKIIGMSLLMRTFLY [SIR3]", 2.31),
    ("GKGHLVGRLASVVAKQL [RPL16A]", 1.48),
    ("QRTCLMTVTFLILAGQV [YCS4]", 1.36),
    ("LIESLNTIRQNVTSSGD [YML103C/NUP188]", 1.27),
    ("GKGESVIFNDNVTETYS [SIR3]", 2.92),
    ("YMKFSNKYLELCKLASN [RRI2]", 1.87),
]

* * *

Assay Protocol: protein stability index of a GFP-peptide fusion (yeast GPS) (PSI 1-4); higher = more stable; sorted into four equal gates, so the index is relative within each strain
Reported Conditions: san1∆
// protein stability index lookup, one value per entry
Result Type: protein stability index

# Sequence Content, Result Type, Assay Value
rows = [
    ("EVYDFTHAVGNNCEDFV [FAS1]", "protein stability index", 2.99),
    ("LVEEKTPGLTFNAIDLA [RPC82]", "protein stability index", 3.25),
    ("EKACQVLKYMLLSKIML [RPN6]", "protein stability index", 1.13),
    ("TAIAHSIREQVHMYHKS [SNF5]", "protein stability index", 2.23),
    ("GKRQVLIRPSSKVIIKF [RPS22A]", "protein stability index", 2.78),
    ("PSRKDCMEVASAFMKFS [BRR2]", "protein stability index", 2.83),
    ("AKFRLILIESRIHRLAR [RPS13]", "protein stability index", 1.7),
    ("YEFPIEGIEIYDRKKLP [RPC11]", "protein stability index", 1.91),
    ("NAVSFDTTFSDFKEVED [SRB4]", "protein stability index", 2.6),
    ("ERHQKQLNEKLVGRLRK [YCS4]", "protein stability index", 3.02),
    ("QFTRFFLLVPSKQVQVS [ECM29]", "protein stability index", 1.19),
    ("FGQDVSPMINSTSSGKV [SNM1]", "protein stability index", 2.74),
    ("PFFARFKLRIQTTEGYD [RPB11]", "protein stability index", 1.37),
    ("TLFCCLLRSRLATRRVL [RPO21]", "protein stability index", 1.15),
    ("TEHSKVTRFDEKQIEEL [SRB6]", "protein stability index", 3.11),
    ("QLNASISLIPELSVVLS [RRI2]", "protein stability index", 2.98),
    ("TVNEPQMSDKHATVVPP [SRB7]", "protein stability index", 2.89),
    ("NDICSVENYETSSAFFY [SIR4]", "protein stability index", 2.64),
    ("VTTNINWRSFNAKIIDA [SRP68]", "protein stability index", 3.06),
    ("MMENYQNISPVYSVDPL [PRP8]", "protein stability index", 2.21),
    ("NTLNIDNTARVIFDASI [BRN1]", "protein stability index", 2.23),
    ("KPANASHAIRLGNGVAC [RGR1]", "protein stability index", 2.52),
    ("TKFSKLIGRPPLLVPGM [FAS1]", "protein stability index", 1.91),
    ("GESTVESEKLVTPEDVM [RPC82]", "protein stability index", 3.15),
    ("EKASGFEDSMQFKKLTH [PRP8]", "protein stability index", 2.99),
    ("PGGQAALRALARSGLRI [RPS14A]", "protein stability index", 2.21),
    ("GRQFCNRLSRIHLYMLT [YLR018C/POM34]", "protein stability index", 1.69),
    ("FSQKANKTKAVDNTVPS [YOR098C/NUP1]", "protein stability index", 1.81),
    ("IFALVFSSNERYFFWLQ [RPN13]", "protein stability index", 1.65),
    ("NKVGSTGSLMGGNSTQN [YGR119C/NUP57]", "protein stability index", 3.19),
    ("NQSFIQQKANLLSSSNF [COR1]", "protein stability index", 2.04),
    ("RPDLIKEDHPLEFYKDK [SIR3]", "protein stability index", 3.21),
    ("SQLKKSKAQQKTAEQVA [RPL7A]", "protein stability index", 2.58),
    ("IFDGNYGESDIHFREHQ [YMR129W/POM152]", "protein stability index", 3.58),
    ("DLEKLLEMSTEDFVKLA [RPS15]", "protein stability index", 3.44),
    ("SSTIDAPAFHTSGKVEL [SRB8]", "protein stability index", 2.94),
    ("ILDITDEELVSHFVSAV [RPP0]", "protein stability index", 3.01),
    ("SSLHSPTSDEPVPESAG [SRB4]", "protein stability index", 2.95),
    ("GNILDFNLNLPPSSFGR [REC8]", "protein stability index", 3.03),
    ("ESRSFSPIPFPPLTYKN [PRP8]", "protein stability index", 2.6),
    ("RGYTCQFVDMVLPNTAL [FAS1]", "protein stability index", 1.32),
    ("VGSENVECTISILRKSS [SNF12]", "protein stability index", 2.43),
    ("LIRFDESITKAMEFIFG [SMC2]", "protein stability index", 2.35),
    ("IKNFKSLLLSSSFKEDC [SSN2]", "protein stability index", 2.96),
    ("FKKAAPSPISHVAEIRS [RPB2]", "protein stability index", 1.77),
    ("QAPFSTSTKDKNSSTSN [MED1]", "protein stability index", 3.12),
    ("AGTKITICIELKTVLHN [RGR1]", "protein stability index", 1.39),
    ("SSKKSKRLDKVGKKKGG [LRP1]", "protein stability index", 1.91),
    ("VMKQVETLVLDEADKMI [PRP28]", "protein stability index", 3.42),
    ("KGQGPFTLTYDIIETFS [YMR129W/POM152]", "protein stability index", 2.02),
    ("DSTVNKSITLKGRNNES [YDL088C/ASM4]", "protein stability index", 3.23),
    ("QEAVNSLKGYKIENSVQ [CSI1]", "protein stability index", 3.32),
    ("IVFDNTDKSNSPIGFTN [SMC2]", "protein stability index", 3.15),
    ("LTFMTCNSLHIPQDFEN [ESC2]", "protein stability index", 2.19),
    ("MFNPLHESYCLPMDTNL [YMR129W/POM152]", "protein stability index", 2.75),
    ("KTYEPVLNEDDLAFGGE [RPN5]", "protein stability index", 3.29),
    ("VAASIIPFPDHNQSPRN [RPB2]", "protein stability index", 2.33),
    ("IRKLTLRDTFIELDQVL [RPO21]", "protein stability index", 2.7),
    ("AKIISKAPEQFIENFLT [YML103C/NUP188]", "protein stability index", 2.54),
    ("SPFLMGHPMTKSVYETP [SEC65]", "protein stability index", 2.83),
]
